- Measured on: T1, P17-His protein (human CD40 antigen) (human, UniProt P25942 21-193, limits assumed)
- T1 construct: also called human CD40 antigen (P17-His)
- Assay overview: BLI (Fortebio Octet RED96), antibody on Protein A sensor, P17-His 5-40 nM
Reported property: Kd
Please format your answer as a value with the unit trailing.

Entry under test: C8-8 antibody (antibody, V domains shown) VH: EVQLLESGGGLVRPGGSLRLSCAASGFTFGSYEMNWVRQAPGKGLEWVSYISSSGETTDYADSVKGRFTVSRDNSKNLLYLQMNSLRAEDTAVYYCARDVFFFDSSGPPGAYGMDVWGQGTMVTVSS VL: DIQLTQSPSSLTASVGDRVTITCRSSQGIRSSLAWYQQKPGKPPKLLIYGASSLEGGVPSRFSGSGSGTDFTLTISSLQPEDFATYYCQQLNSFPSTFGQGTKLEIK . Its Kd was 10.3 nM

Entry under test: C8-10 antibody (antibody, V domains shown) VH: EVQLLESGGGLVRPGGSLRLSCAASGFTFGSYEMNWVRQAPGKGLEWVSYISSSGETTDYADSVKGRFTVSRDNSKNLLYLQMNSLRAEDTAVYYCARDVFFFDSSGFPGAYGMDVWGQGTMVTVSS VL: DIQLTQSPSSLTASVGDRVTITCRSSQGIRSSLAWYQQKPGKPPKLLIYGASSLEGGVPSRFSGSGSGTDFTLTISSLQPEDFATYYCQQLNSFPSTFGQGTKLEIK . Its Kd was 6.82 nM

The measured values listed here are drawn from patent US20240218071A1.
